target: human glucagon receptor (GCGR), expressed on CHO-K1 cells (human, UniProt P47871 26-477); assay: cell-based or functional assay
Sequence (P47871 26-477): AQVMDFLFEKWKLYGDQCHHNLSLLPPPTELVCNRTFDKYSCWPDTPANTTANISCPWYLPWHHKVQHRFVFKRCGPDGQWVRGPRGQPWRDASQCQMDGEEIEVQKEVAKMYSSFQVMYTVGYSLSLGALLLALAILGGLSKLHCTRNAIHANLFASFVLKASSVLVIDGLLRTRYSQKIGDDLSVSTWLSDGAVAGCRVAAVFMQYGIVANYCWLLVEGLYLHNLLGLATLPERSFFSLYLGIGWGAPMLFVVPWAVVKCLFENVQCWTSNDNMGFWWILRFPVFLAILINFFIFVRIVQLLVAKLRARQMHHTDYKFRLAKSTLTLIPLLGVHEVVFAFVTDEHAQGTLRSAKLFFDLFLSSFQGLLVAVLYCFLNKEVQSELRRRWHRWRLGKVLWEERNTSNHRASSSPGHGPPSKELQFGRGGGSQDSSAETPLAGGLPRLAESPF
Numbered stars: 1 amine (or outer) side, 2 acyl side, 3 side chain; on linkers, the order of the positions; unused ones are H or OH. Square brackets hold non-standard residues; d marks the D form. Primed or numbered codes have the meaning given here. Side chains are listed from the residue outwards. Ends that are not written are not given here. * marks the point of attachment. C18″ = C18 fatty acid moiety (of 2OEG-γGlu-C18, K*); γGlu = O=C(O)[C@H](CCC(=O)[*:2])N[*:1]; AEEA = NCCOCCOCC(=O)O; Aib = CC(C)(N)C(=O)O
assay endpoint: Relative % to native ligand (%)
Express it in %; write the number only.

binder	unit spec	Relative % to native ligand
Y[Aib]QGTFTSDYSKYLDYMMARDFVQWLIEGGPSSGAPPPSC-NH2 (not fully specified (residue 40)) [Peptide No. 5-1A]	%	24
Y[Aib]QGTFTSDYSK([AEEA-AEEA-γGlu-C18″])LLDYMMQRDFVQWLLEGGPSSGAPPPS-NH2 [Peptide No. 5-3D]	%	11
Y[Aib]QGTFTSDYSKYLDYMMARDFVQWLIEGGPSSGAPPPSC-NH2 [Peptide No. 5-1]	%	6650
Y[Aib]QGTFTSDYSKLLDYMMQRDFVQWLLEGGPSSGAPPPSC-NH2 [Peptide No. 5-3]	%	969

Now take the following binder into account.
Task: Kindly indicate its recorded Relative % to native ligand. Item: H[Aib]QGTFTSDYSK([AEEA-AEEA-γGlu-C18″])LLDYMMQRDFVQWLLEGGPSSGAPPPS-NH2 [Peptide No. 5-5D]
Result: 2
